For each entry below, report its fraction ligated value.
B1: F1*; the commonest letter at each place (parent)
chain: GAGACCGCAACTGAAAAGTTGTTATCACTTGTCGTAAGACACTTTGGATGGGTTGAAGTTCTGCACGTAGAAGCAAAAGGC

# Variants of: B1
# experiment.description: fraction ligated after 30 min (ligated reads / total reads); higher = more ligase activity
# run.parameters: with F1*sub RNA substrate (template-directed ligation), 42 °C
Numbers only.

> print(dat)
   mutation.key  endpoint.value
1     G38T A56G           0.806

Provide fraction ligated for all items below, preserving their order.
1. T32A T45C
2. T45A A56G
3. A36G A57T
4. T35A G46T
5. A27T C40G
6. T23A A36C
7. A37G G46C
8. T44G G47A

0.358
0.768
0.878
0.783
0.807
0.826
0.81
0.305

Provenance of the data: the supplement of paper PMC6755084
